Recorded measurements of Dmax, one per entry
# tested.system: endogenous BCL6 in OCI-Ly1 cells (Homo sapiens, UniProt P41182)
# method: cell-based
# settings: OCI-Ly1, read-out: MSD degrader assay [OCI-LY1] Dmax individual replicates, single replicate values
Write the answer as a number in %, unit excluded.

C[C@H]1C[C@@H](O)CN(c2ncc(Cl)c(Nc3ccc4c(c3)n(CCC(C)(C)O)c(=O)n4C)n2)C1 (relative stereo)
91
Cn1c(=O)c2c(c3cc(Nc4nc(N5CCC(F)(F)[C@@H](CO)C5)ncc4Cl)ccc31)N[C@@H](C1CC1)C(F)(F)CO2
76.7
CC(=O)N[C@@H]1C[C@H](C)CN(c2ncc(Cl)c(Nc3ccc4c(c3)c3c(c(=O)n4C)OCC(F)(F)[C@H](C4CC4)N3)n2)C1 [10a]
72.4

// below: Dmax requested for another compound
Ask: Which Dmax value belongs to C[C@H]1C[C@@H](N(C)C)CN(c2ncc(Cl)c(Nc3ccc4c(c3)c3c(c(=O)n4C)OCC(F)(F)[C@H](C4CC4)N3)n2)C1 [11a] ?
Reply: 53.6
